Species: Homo sapiens
Assay: Selectivity index, ratio of Ki for inhibition of C-terminal 6x-histidine tagged beta-catenin (138 to 686 residues) (unknown origin) expressed in Escherichia coli BL21 DE3/N-terminally biotinylated human E-cadherin (824 to 877 residues) protein-protein interactions by Alpha-screen assay to Ki for …
ATTRIBUTE MEASURED: Ratio Ki

# ENTRY SMILES, Ratio Ki
measured = [
    ("O=C(Nc1ccc(O[C@H]2CCNC2)c(-c2ccc(F)c(F)c2)c1)c1ccc(O[C@H]2CCNC2)c(-c2ccc(F)c(F)c2)c1", 30),
]

I = O=C(NCCCC(=O)N1CCNCC1)c1ccc(-c2cc(C(=O)Nc3ccc(O[C@H]4CCNC4)c(-c4ccc(F)cc4)c3)ccc2O[C@H]2CCNC2)cc1
II = O=C(Nc1ccc(O[C@H]2CCNC2)c(-c2ccc(F)cc2)c1)c1ccc(O[C@H]2CCNC2)c(-c2ccc(F)cc2)c1
III = O=C(Nc1ccc(OC2CNC2)c(-c2ccc(F)cc2)c1)c1ccc(OC2CNC2)c(-c2ccc(F)c(F)c2)c1
*Q* Hello, I need these entries ordered by Ratio Ki, highest reading first. Thanks! Output spec: a listing of the labels in the requested order.
*A* I, II, III
